molecular target: ERα (Homo sapiens (Human)); assay: ERα degradation (MCF7 cells), in-cell Western; details: inflection point of the degradation in response to ligand concentration, MCF7 cells
VALUE TYPE: pIC50
Formally, pIC50 is defined as -log10 of the concentration c, with c in mol/L.

Below: 3 compounds and their reported pIC50.
| COMPOUND | STUDY TARGET | pIC50 |
| --- | --- | --- |
| CNC(=O)/C=C/c1ccc(Oc2c(-c3ccc(O)c(C)c3)sc3cc(O)ccc23)cc1 [Example 68] | ERα (Homo sapiens (Human)) | 6.79 |
| O=C(O)/C=C/c1ccc(Oc2c(-c3ccccc3CC(F)(F)F)sc3cc(O)ccc23)cc1 [Example 109] | ERα (Homo sapiens (Human)) | 9.70 |
| CCCc1nnc(/C=C/c2ccc(Oc3c(-c4ccccc4C(C)C)sc4cc(O)ccc34)cc2)[nH]1 [Example 107] | ERα (Homo sapiens (Human)) | 8.40 |

Alright, here's another compound for you.
Field request: pIC50 | item: O=C(O)/C=C/c1ccc(Oc2c(-c3ccc(O)c(F)c3)sc3cc(O)ccc23)cc1 [Example 40]
7.66

----------
biological target: ERα (Homo sapiens (Human), UniProt P03372); assay: ERα degradation (MCF7 cells), in-cell Western; assay type: cell-based; details: remaining ERα protein at 10 μM ligand, MCF7 cells, relative to DMSO control
Sequence (P03372 whole entry): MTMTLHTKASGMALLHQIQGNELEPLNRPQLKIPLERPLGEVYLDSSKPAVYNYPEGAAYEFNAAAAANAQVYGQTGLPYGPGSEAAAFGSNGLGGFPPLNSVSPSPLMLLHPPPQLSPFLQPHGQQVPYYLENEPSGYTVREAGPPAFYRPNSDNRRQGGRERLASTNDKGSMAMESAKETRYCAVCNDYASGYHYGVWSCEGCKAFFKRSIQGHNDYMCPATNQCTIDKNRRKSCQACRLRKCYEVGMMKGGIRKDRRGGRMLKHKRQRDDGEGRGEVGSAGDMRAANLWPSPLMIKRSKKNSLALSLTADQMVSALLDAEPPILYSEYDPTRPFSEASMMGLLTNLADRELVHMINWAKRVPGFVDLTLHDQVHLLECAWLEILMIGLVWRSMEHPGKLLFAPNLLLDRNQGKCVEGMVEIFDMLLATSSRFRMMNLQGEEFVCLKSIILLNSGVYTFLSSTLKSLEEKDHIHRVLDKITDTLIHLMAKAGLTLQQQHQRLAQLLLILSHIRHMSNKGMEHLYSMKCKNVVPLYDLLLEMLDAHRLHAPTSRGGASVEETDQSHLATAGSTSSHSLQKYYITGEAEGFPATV
Heads up, the class ranges for % ERα remaining are low = under 20%, mid = from 20% up to 30%, high = 30% and over

Please review the entries below; each comes with its answer.
| COMPOUND | ASSIGNED CLASS |
| --- | --- |
| O=C(O)/C=C/c1ccc(Oc2c(-c3ccccc3CN3CCC3)sc3cc(O)ccc23)cc1 [Example 97] | low |
| Cc1cc(F)ccc1-c1sc2cc(O)ccc2c1Oc1ccc(/C=C/c2n[nH]c(=O)o2)cc1 [Example 48] | high |
| CCCn1cnc(/C=C/c2ccc(Oc3c(-c4ccc(O)cc4)sc4cc(O)ccc34)cc2)c1 [Example 74] | high |

Bin this entry: CCC(C)c1ccccc1-c1sc2cc(O)ccc2c1Oc1ccc(/C=C/C(=O)O)cc1 (centres unmarked) [Example 86]
low

// bin(item) where item = Cc1cc(C(F)(F)F)ccc1-c1sc2cc(O)ccc2c1Oc1ccc(/C=C/C(=O)O)cc1 [Example 10]
low

The entry to classify is CC/C(=C\c1ccc(Oc2c(-c3ccccc3C(C)C)sc3cc(O)ccc23)cc1)C(=O)O [Example 113] ; which class holds it?
mid

# classify by % ERα remaining band: CC(C)c1ccccc1-c1sc2c(F)c(O)ccc2c1Oc1ccc(/C=C/C(=O)O)cc1 [Example 101]
low

Form field 'band' for O=C(O)/C=C/c1ccc(Oc2c(-c3ccc(C(F)F)cc3)sc3cc(O)ccc23)cc1 [Example 27]
mid

// bin(item) where item = CCCc1nnc(/C=C/c2ccc(Oc3c(-c4ccccc4C(C)C)sc4cc(O)ccc34)cc2)o1 [Example 103]
high

----------
Biological target: ERα (Homo sapiens (Human))
Experiment: ERα degradation (MCF7 cells), in-cell Western
Conditions: inflection point of the degradation in response to ligand concentration, MCF7 cells
Procedure: ERα Degradation (MCF7 Cells) The column titled MCF7 IC50 reports the inflection point of the inhibition of transcription in MCF7 cells as described above. Percentage ERα remaining reports the remaining ERα protein measured at 10 μM concentration of the ligand as described above. The column ERα IC50 reports the inflection point of the degradation in response to the ligand concentration.
Binary call on IC50 with cut-off 5 nM: strictly below means YES, and equality or higher means NO.

| QUERY SMILES | ASSIGNED CLASS |
| --- | --- |
| O=C(O)/C=C/c1ccc(Oc2c(-c3ccc(O)cc3)sc3c(F)c(O)ccc23)cc1 | NO |
| Oc1ccc(-c2sc3cc(O)ccc3c2Oc2ccc(/C=C/c3c[nH]cn3)cc2)cc1 | NO |
| CC/C(=C\c1ccc(Oc2c(-c3ccc(O)cc3)sc3cc(O)ccc23)cc1)C(=O)O | NO |
| O=C(O)/C=C/c1ccc(Oc2c(-c3ccccc3Cl)sc3cc(O)ccc23)cc1 | NO |
| CC(C)c1ncoc1-c1sc2cc(O)ccc2c1Oc1ccc(/C=C/C(=O)O)cc1 | NO |
| CC(F)(F)c1ccccc1-c1sc2cc(O)ccc2c1Oc1ccc(/C=C/C(=O)O)cc1 | YES |
| Cc1ccccc1-c1sc2cc(O)ccc2c1Oc1ccc(/C=C/C(=O)O)cc1 | YES |

Let's switch to this compound now.
Record O=C(O)/C=C/c1ccc(Oc2c(-c3ccccc3C3CC3)sc3cc(O)ccc23)cc1 : is its IC50 strictly below 5 nM?
YES

The origin of these recorded values is patent US10058534B2.
